# tested_target: Penicillin-binding protein 2x (Streptococcus pneumoniae serotype 4 (strain ATCC BAA-334 / TIGR4), UniProt P14677)
# Sequence (P14677 whole entry, looked up): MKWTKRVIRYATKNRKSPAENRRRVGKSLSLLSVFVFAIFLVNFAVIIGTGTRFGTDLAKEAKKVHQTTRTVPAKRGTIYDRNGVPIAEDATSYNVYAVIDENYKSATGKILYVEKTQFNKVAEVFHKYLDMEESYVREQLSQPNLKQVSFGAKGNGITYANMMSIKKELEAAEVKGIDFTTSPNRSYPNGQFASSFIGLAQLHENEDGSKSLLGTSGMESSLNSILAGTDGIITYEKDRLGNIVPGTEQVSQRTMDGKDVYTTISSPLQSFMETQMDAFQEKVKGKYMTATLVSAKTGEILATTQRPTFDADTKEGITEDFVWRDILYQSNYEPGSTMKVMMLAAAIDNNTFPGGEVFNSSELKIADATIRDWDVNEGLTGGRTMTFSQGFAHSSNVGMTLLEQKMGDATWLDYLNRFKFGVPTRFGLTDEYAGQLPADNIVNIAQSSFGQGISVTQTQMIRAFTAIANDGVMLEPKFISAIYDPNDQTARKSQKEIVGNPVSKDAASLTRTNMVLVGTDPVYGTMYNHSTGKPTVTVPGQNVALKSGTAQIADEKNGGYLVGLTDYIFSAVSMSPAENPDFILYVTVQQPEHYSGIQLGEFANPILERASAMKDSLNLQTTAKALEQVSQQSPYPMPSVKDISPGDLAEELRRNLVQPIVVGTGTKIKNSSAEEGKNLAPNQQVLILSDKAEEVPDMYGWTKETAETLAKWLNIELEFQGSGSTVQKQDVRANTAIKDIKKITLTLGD
# measurement_description: Inhibition of penicillin-resistant Streptococcus pneumoniae 5204 PBP2x after 60 mins by SDS-PAGE
recorded_endpoint: IC50 (µM)
Report the value in µM with no unit label.

Record O=C(COc1ccccc1)N[C@H]1CON([C@@]2(C(=O)O)CCC(=O)O2)C1=O , field IC50: 7.9
